Where these numbers come from: the Human Domainome abundance scans (Beltran et al. 2025)

B1: Dystrobrevin alpha, residues 235 to 294; numbered along this chain, Q9Y4J8 (parent)
chain: ENVFHPVECSYCHSESMMGFRYRCQQCHNYQLCQDCFWRGHAGGSHSNQHQMKEYTSWKS

variants of: B1; test: abundance fitness (aPCA) (normalised: wild type 0, dead -1); higher = more abundant; growth selection in yeast, the domain comes from the species named; conditions: Homo sapiens
Reported abundance fitness values are given for each entry in this list.
API doc: respond with a numeric literal and nothing else, no unit.

{"columns": ["VAR", "OBSERVED VALUE"],
 "data": [
  ["G40K", -0.045],
  ["S10M", -0.298],
  ["S57P", 0.171]
]}

Ask | Which measured abundance fitness value corresponds to Q34Y ?
Reply | -0.147

Ask | Which measured abundance fitness value corresponds to S14F ?
Reply | -0.622

Ask | Which measured abundance fitness value corresponds to H41W ?
Reply | -0.323

Ask | Which measured abundance fitness value corresponds to H28A ?
Reply | 0.145

Ask | Which measured abundance fitness value corresponds to N29W ?
Reply | -0.183

Ask | Which measured abundance fitness value corresponds to P6R ?
Reply | -0.029

Ask | Which measured abundance fitness value corresponds to F20V ?
Reply | 0.104

Ask | Which measured abundance fitness value corresponds to G44V ?
Reply | -0.234
